// merged dataset of Ki values, system = UniProt P08254, multiple refs
All answers are understood in nM, so give the number only.

smiles | testResult
Cc1ccc(CCC[C@H](CC(=O)NO)C(=O)N[C@@H](CC2CCCCC2)C(=O)NCCC(=O)NCCN2CCOCC2)cc1 | 6.26
COc1ccc(C(=O)NCCCOc2ccc(S(=O)(=O)C3(C(=O)NO)CCOCC3)cc2)cc1 | 900

In: # Ki lookup, item `CNC(=O)[C@H](CCCNC(=O)N1CCOCC1)NC(=O)[C@H](CCCc1ccccc1)[C@@](C)(O)C(=O)NO`
Out: 70

In: # Ki lookup, item `NS(=O)(=O)c1ccc(CCNC(=O)[C@H](CC2CCCCC2)NC(=O)[C@H](CCCc2ccc(Cl)cc2)CC(=O)NO)cc1`
Out: 6.35

---

// merged dataset of pKi values, system = UniProt:P08254, multiple refs
pKi: −log10 of the molar value.

Some entries whose results are on file:
compound | pKi
CNC(=O)[C@@H]1CCCCN(C(=O)OC(C)(C)C)CCC[C@H](C(=O)NO)[C@@H](CC(C)C)C(=O)N1 | > 9.00
COc1cccc(CNC(=O)c2cc(-c3nnn(C[C@H]4CC[C@H](NC(C)=O)CC4)n3)cc(C)n2)c1 | < 5.00
O=C(NCCc1cccs1)[C@H](O)[C@@H](O)C(=O)N1CCN(c2ccccc2Cl)CC1 | < 4.30

In: # pKi lookup, item O=S(=O)(N[C@H]1CCC[C@@H]1O)c1ccc(Oc2ccccc2)cc1 (racemic)
Out: < 3.70

In: # pKi lookup, item O=S(=O)(N[C@H]1CCC[C@@H]1S)c1ccccc1 (racemic)
Out: < 3.70

---

// merged dataset of Ki values, system = Stromelysin-1 (Homo sapiens, UniProt P08254), multiple refs

Some entries whose results are on file:
molecule | metricName | testResult
CC1(CN[C@H](C(=O)NO)[C@@H](Cc2cccc(O)c2)C(=O)N[C@H]2c3ccccc3C[C@H]2O)CC1 | Ki | > 4.5 µM
Cc1cc(COc2ccc([C@]3(N)CCN([C@H](CC(C)C)c4n[nH]c(=S)[nH]4)C3=O)cc2)c2ccccc2n1 | Ki | > 4.5 µM
CS(=O)(=O)NCc1noc([C@H](CCCC2CCCCC2)CC(=O)NO)n1 | Ki | > 100 µM
O=C1NCCCC[C@@H](C(=O)NCC(=O)N2CCNCC2)NC(=O)[C@H](Cc2ccc(-c3cc(C(F)(F)F)cc(C(F)(F)F)c3)cc2)[C@@H](C(=O)NO)CCCO1 | Ki | > 2 µM

In: Look up Ki with Stromelysin-1 (Homo sapiens, UniProt P08254) for this molecule: CCCN1CC[C@H](c2n[nH]c(=S)[nH]2)[C@H](NC(=O)c2ccc(OCc3cc(C)nc4ccccc34)cc2)C1 (relative stereo)
Out: > 4.5 µM

In: Look up Ki with Stromelysin-1 (Homo sapiens, UniProt P08254) for this molecule: CC(=O)N1CC[C@H](c2n[nH]c(=S)[nH]2)[C@H](NC(=O)c2ccc(OCc3cc(C)nc4ccccc34)cc2)C1 (relative stereo)
Out: > 4.5 µM
